// values below are pKi; system is human H3R (Homo sapiens, UniProt Q9Y5N1)
Sequence (Q9Y5N1 whole entry): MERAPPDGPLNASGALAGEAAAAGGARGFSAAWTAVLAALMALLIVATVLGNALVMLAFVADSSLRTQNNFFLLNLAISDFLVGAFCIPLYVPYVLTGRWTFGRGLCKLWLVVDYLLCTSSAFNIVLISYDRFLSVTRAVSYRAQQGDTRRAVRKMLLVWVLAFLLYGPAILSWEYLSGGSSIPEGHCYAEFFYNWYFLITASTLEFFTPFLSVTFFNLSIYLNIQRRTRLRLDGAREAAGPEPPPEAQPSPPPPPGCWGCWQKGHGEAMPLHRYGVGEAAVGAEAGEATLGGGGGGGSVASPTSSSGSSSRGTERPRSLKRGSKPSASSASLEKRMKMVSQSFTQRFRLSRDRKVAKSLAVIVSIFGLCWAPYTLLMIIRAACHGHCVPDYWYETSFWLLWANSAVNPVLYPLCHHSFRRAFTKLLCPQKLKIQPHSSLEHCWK
Numbers only, as −log10 of the molar value.

INSERT INTO assay_data (chemical_structure, value_type, value_measured) VALUES
  ('COC[C@@H]1CCCN1CCc1nc(-c2ccc(-c3cccnc3)cc2)oc1C', 'pKi', 7.84);

Kindly consider the entry below.
Enquiry: Look at this compound and give its reported pKi. `CS(=O)(=O)Nc1ccc(-c2ccc(-c3nc(CN4CCCC4)co3)cc2)cc1`
Return: 8.80
